src = patent EP4725963A1

biological target: T1, fusion protein of the human NPR1 protein extracellular domain and human-IgG1-Fc (human); assay: ELISA, plate coated with 4 µg/mL hNPR1 antigen
T1 construct: also called hNPR1-hFc; hNPR1
T1 sequence (chain, as listed by the source limits assumed): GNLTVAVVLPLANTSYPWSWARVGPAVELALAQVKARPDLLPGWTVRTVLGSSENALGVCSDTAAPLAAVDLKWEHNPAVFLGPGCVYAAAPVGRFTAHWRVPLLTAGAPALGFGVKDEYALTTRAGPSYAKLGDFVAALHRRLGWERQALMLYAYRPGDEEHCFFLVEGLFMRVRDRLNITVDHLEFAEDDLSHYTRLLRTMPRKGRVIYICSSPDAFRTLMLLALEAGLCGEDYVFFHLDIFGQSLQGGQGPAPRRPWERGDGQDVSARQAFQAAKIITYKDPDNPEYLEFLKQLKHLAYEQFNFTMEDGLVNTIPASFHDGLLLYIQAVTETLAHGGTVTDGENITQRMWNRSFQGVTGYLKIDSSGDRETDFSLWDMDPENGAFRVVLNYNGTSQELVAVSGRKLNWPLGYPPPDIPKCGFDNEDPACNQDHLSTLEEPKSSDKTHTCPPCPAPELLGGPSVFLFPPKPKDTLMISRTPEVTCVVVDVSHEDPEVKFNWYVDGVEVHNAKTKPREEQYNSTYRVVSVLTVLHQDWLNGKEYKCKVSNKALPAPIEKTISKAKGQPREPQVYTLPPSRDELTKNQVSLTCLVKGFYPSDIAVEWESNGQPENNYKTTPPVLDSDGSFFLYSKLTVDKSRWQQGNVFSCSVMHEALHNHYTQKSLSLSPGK
reportedMetric: pEC50
Worth noting: pEC50 values are minus log10 of concentrations stated in mol/L.

Challenge: Returns the measured pEC50 for the input binder. Input: Hu140H5L5-11 (antibody, human IgG1, kappa, L234A L235A, V domains shown, Humanized, human IgG1 LALA/kappa) VH: QVQLVQSGAEVKKPGASVKVSCKASGYTFTSYWMHWVRQAPGQGLEWMGRIDPNSGVTKYNEKFKSRVTLTVDKPSSPAYMELSSLRSEDTAVYYCARSGGLRRYFDVWGQGTTVTVSS VL: EIVLTQSPATLSLSPGERAQLSCSASSSVSYMYWYQQKPGQAPRLLIYDTYNLASGVPDRFSGSGSGTSYTLTISRLEPEDFAVYYCQQWSSYPPTFGAGTKLEIKR
Response given: 8.06

Challenge: Returns the measured pEC50 for the input binder. Input: Hu135H3L1 (antibody, human IgG1, kappa, L234A L235A, V domains shown, Humanized, human IgG1 LALA/kappa; also called Hul35H3L1) VH: DVKLVESGEGLVKPGGSLRLSCAASGFSISTYGMSWVRQAPGKRLEWVAYINSGGNYIYYADSVKGRFTISRDNAKNSLYLQMNSLRAEDTAVYYCTRDRTTIVVHWYFDVWGQGTTVTVSS VL: DIQLTQSPSSLSASVGDRVTITCSASSSLNFMHWYQQKPGKSPKRWIYDTSKLASGVPSRFSGSGSGTDYTLTISSLQPEDFATYYCHQRSSTFGGGTKVEIKR
Response given: 10.70

Challenge: Returns the measured pEC50 for the input binder. Input: Hu102H4L6 (antibody, human IgG1, kappa, L234A L235A, V domains shown, Humanized, human IgG1 LALA/kappa; also called Hul02H4L6) VH: DVKLVESGEGLVKPGGSLRLSCAASGFTFSSYAMSWVRQAPGKRLEWVAYISRGGDYIYYADSVKGRFTISRDNAKNSLYLQMNSLRAEDSAVYYCTRDQTTVVVHWYFDVWGQGTTVTVSS VL: DIQLTQSPSSLSASVGDRVTITCSASSSINYMHWYQQKPGKSPKRWIYDTSKLASGVPSRFSGSGSGTDYTLTISSLQPEDFATYYCHQRNSYTFGGGTKVEIKR
Response given: 8.88
